Test: qHTS for Inhibitors of Plasmodium falciparum (CP250) proliferation (AID 504320)
Conditions: P. falciparum CP250 in erythrocytes, SYBR Green DNA, 72 h; series mostly up to 6.7 µM
Inconclusive results are not listed. The source made the active and inactive calls. Calls follow the shape of the dose curve; as a rule, active = well fitted inhibition curve with a large enough effect; inconclusive = small, poorly fitted or top-dose-only effect, or effect the other way; inactive = flat fitted curve, though single readings scatter.

[
  {
    "compound": "C[C@@H]1C=CCC(=O)N[C@@H](c2cccc(Br)c2)[C@H](C)C=CCC(=O)N[C@@H]1c1cccc(Br)c1",
    "outcome": "inactive"
  },
  {
    "compound": "CCOC(=O)c1c(C(=O)OCC)c2c3ccccc3cc(C)n2c1C(=O)OC",
    "outcome": "inactive"
  },
  {
    "compound": "C[C@H]1[C@H](N=[N+]=[N-])[C@H](O)CCO[C@@H]1c1ccccc1",
    "outcome": "inactive"
  },
  {
    "compound": "C=C(C)CCCN1C=C(C(C)=O)C(c2ccccc2)NC1=O (stereo unspecified)",
    "outcome": "inactive"
  },
  {
    "compound": "C=CCOC(=O)N[C@H](C(C(=O)OC)=C(C)NCc1ccccc1)c1cccc(C(F)(F)F)c1",
    "outcome": "inactive"
  },
  {
    "compound": "CC(C)(C)OC(=O)NCCCC1=CC2=CC(=O)C(C)(O)C(=O)C2=CO1 (stereo unspecified)",
    "outcome": "inactive"
  },
  {
    "compound": "C=CC1=C2C=C(C3CC3)N(CCOC)C=C2C(=O)C(C)(OC(=O)c2ccco2)C1=O (stereo unspecified)",
    "outcome": "inactive"
  },
  {
    "compound": "COc1cccc(CO[C@H]2C=C[C@@H](c3ccccc3)O[C@H]2CN=[N+]=[N-])c1",
    "outcome": "inactive"
  },
  {
    "compound": "Cc1cc(C)c(S(=O)(=O)OC[C@H]2C=CC[C@@H](CCC[C@H]3O[C@H](C(=O)OC(C)C)CC[C@@H]3C)O2)c(C)c1",
    "outcome": "inactive"
  },
  {
    "compound": "CCCCCCC#C[C@@H]1C=C[C@H](OC(=O)OCC)[C@@H](COC(=O)OCC)O1",
    "outcome": "inactive"
  },
  {
    "compound": "COC(=O)C1=C(C)N(Cc2ccccc2)C(=NCc2ccc3c(c2)OCO3)NC1CCc1ccccc1 (stereo unspecified)",
    "outcome": "inactive"
  },
  {
    "compound": "Cc1ccc([S+](=O)([O-])N[C@@H]2COC(=O)CC=C[C@H](C)COC(=O)N[C@@H](C)C(=O)CC=C[C@H]2C)cc1",
    "outcome": "inactive"
  },
  {
    "compound": "CCOC(=O)NN=C1C[C@@H](O)[C@@H](O)[C@@H]2[C@H]3C(=O)N(c4cccc(Oc5ccccc5)c4)C(=O)[C@@H]3CC[C@@H]12",
    "outcome": "inactive"
  },
  {
    "compound": "COc1ccc(COC(=O)NN=C2C[C@@H](O)[C@@H](O)[C@@H]3[C@H]4C(=O)N(c5cccc(Oc6ccccc6)c5)C(=O)[C@@H]4CC[C@H]23)cc1",
    "outcome": "inactive"
  },
  {
    "compound": "COC(=O)C1=C(C)N(Cc2ccccc2)C(=S)NC1c1cccc(C(F)(F)F)c1 (stereo unspecified)",
    "outcome": "inactive"
  },
  {
    "compound": "CCc1cc2c(nc1CC)CCN(CCC(C)=NOC[C@@H](O)COCc1ccco1)C2",
    "outcome": "inactive"
  },
  {
    "compound": "O=C1CCCC=C1C(O)COCc1ccccc1 (stereo unspecified)",
    "outcome": "inactive"
  },
  {
    "compound": "C=CCN1c2ccccc2[C@]23CCC(=O)N(CC(=O)OC)C2=NC(C(=O)OC)=C(C(=O)OC)[C@H]13",
    "outcome": "inactive"
  },
  {
    "compound": "COc1cccc([C@H]2Oc3ccc(OC)cc3C(=NOC[C@@H](C)[C@H](OCc3ccccc3)C(C)C)[C@H]2O)c1",
    "outcome": "inactive"
  },
  {
    "compound": "COC(=O)c1cc(C(=O)OC)n2ccc3cc(OC)c(OC)cc3c12",
    "outcome": "inactive"
  },
  {
    "compound": "CCN1C(=O)[C@@H]2[C@H]3[C@H](O)[C@H](O)CC(=NO[C@H](C)c4cn([C@H](CO)Cc5ccccc5)nn4)[C@@H]3CC[C@H]2C1=O",
    "outcome": "inactive"
  },
  {
    "compound": "CC(C)=CCN1C(=O)C2(CC(C)=C[C@@H](C)O2)c2c(Br)cccc21 (stereo partly specified)",
    "outcome": "inactive"
  },
  {
    "compound": "COc1cccc([C@H]2Oc3ccc(OC)cc3C(=NO[C@H](C)c3cn([C@H](CO)Cc4ccccc4)nn3)[C@H]2O)c1",
    "outcome": "inactive"
  },
  {
    "compound": "COC1=C[C@H](C(=O)NCCOC(C)=O)[C@@]2(C)Cc3ccccc3[C@@H]2CC1=O",
    "outcome": "inactive"
  },
  {
    "compound": "COc1ccc(-c2nc3c(c4c2C[C@H](c2ccccc2)OC4)CN(C(=O)N[C@@H](C)c2ccccc2)CC3)c(C)c1",
    "outcome": "inactive"
  },
  {
    "compound": "CCN1C(=O)NC(c2cccs2)C(C(=O)OC)=C1C (stereo unspecified)",
    "outcome": "inactive"
  },
  {
    "compound": "CC1(OC(=O)c2cccs2)C(=O)C=C2C=C(c3ccsc3)OC=C2C1=O (stereo unspecified)",
    "outcome": "inactive"
  },
  {
    "compound": "COC(=O)CC1c2ccccc2C(Cc2ccc3c(c2)OCO3)=C(C)N1C(=O)OC (stereo unspecified)",
    "outcome": "inactive"
  },
  {
    "compound": "COC(=O)N[C@@H](c1ccccc1)[C@]1(C(C)=O)CCCC1=O",
    "outcome": "inactive"
  },
  {
    "compound": "OC[C@H]1O[C@H](c2ccccc2)C=C[C@H]1O",
    "outcome": "inactive"
  },
  {
    "compound": "Cc1cc2c(c(=O)n1Cc1ccccc1)[C@H]1O[C@](c3ccsc3)(Cc3ccccc31)O2",
    "outcome": "inactive"
  },
  {
    "compound": "COc1ccc2c(c1)[C@@H](NC(=O)C(F)(F)F)[C@@H]1CCCC[C@]21c1ccccc1",
    "outcome": "inactive"
  },
  {
    "compound": "C=CCOC(=O)NC(CC(=Nc1ccc(OC)cc1)C(=O)OC)c1ccccc1 (stereo unspecified)",
    "outcome": "inactive"
  },
  {
    "compound": "C[C@H]1Cc2c(-c3ccccc3)nc3c(c2CO1)CN(S(=O)(=O)c1ccc(Cl)c2nonc12)CC3",
    "outcome": "inactive"
  },
  {
    "compound": "C=CC1=C2C=C(C3CC3)N(Cc3ccc4c(c3)OCO4)C=C2C(=O)C(C)(OC(=O)c2ccco2)C1=O (stereo unspecified)",
    "outcome": "inactive"
  },
  {
    "compound": "C=CCOC(=O)N[C@H](c1ccccc1)C(C(C)=O)C(C)=O",
    "outcome": "inactive"
  }
]
